Data credit: patent US8293781B2

Target: cPLA2 crudely purified from the cytoplasm fraction of U937 (Homo sapiens)
Construct: cPLA2 crudely purified from the cytoplasm fraction of U937; endogenous in cells; host or cells: U937 cells (cytoplasm fraction, crude purification)
Experiment: Measurement of cPLA2 inhibitory activity (release of [14C]-arachidonic acid from phosphatidyl choline liposome)
Assay type: biochemical
Give pIC50 for every item shown.
In plain terms, pIC50 is the concentration in mol/L turned into minus its base-10 logarithm.

Bench note, cPLA2 crudely purified from the cytoplasm fraction of U937 (Homo sapiens): entry O=C(O)CCc1ccc2c(c1)c(C(=O)Cc1ccc(Cl)cc1)cn2-c1ccccc1 [Example 57] , its pIC50 = 5.86

Bench note, cPLA2 crudely purified from the cytoplasm fraction of U937 (Homo sapiens): entry O=C(O)/C=C/c1ccc2c(c1)c(C(=O)Cc1ccccc1)cn2-c1ccccc1 [Example 11] , its pIC50 = 5.72

Bench note, cPLA2 crudely purified from the cytoplasm fraction of U937 (Homo sapiens): entry Cc1c(C(=O)Cc2ccccc2)c2cc(/C=C/C(=O)O)ccc2n1-c1ccccc1 [Example 44] , its pIC50 = 6.38

Bench note, cPLA2 crudely purified from the cytoplasm fraction of U937 (Homo sapiens): entry O=C(O)/C=C/c1ccc2c(c1)c(C(=O)c1cccc3ccccc13)cn2-c1ccccc1 [Example 50] , its pIC50 = 5.16

---

Tested on: PGD2 production in rat mast cell like cell line RBL-2H3
Assay: Antigen-induced PGD2 production system using RBL-2H3 sensitized by DNP specific IgE
Assay type: cell-based
Conditions: 0.5 h, RBL-2H3, anti-DNP-IgE sensitized, antigen 10 μg/ml, 30 minutes
Experimental: To evaluate the PGD2 production inhibiting activity, the antigen-induced PGD2 production system using rat mast cell like cell line RBL-2H3 sensitized by a dinitrophenol (DNP) specific IgE with reference to the method of Yamashita et al. (see Yamashita, M. et al., Br J Pharmacol 129: 367, 2000) was used. […] 30 minutes after antigen stimulus, the culture supernatant was recovered and the amount of PGD2 in the supernatant was measured using an EIA kit (made by Cayman). […]
Give IC50 for every item shown.
The reply should be a number in nM, with the unit left off.

Bench note, PGD2 production in rat mast cell like cell line RBL-2H3: entry `O=C(O)CCc1ccc2c(c1)c(CCc1ccccc1)cn2-c1ccc(OC(F)F)cc1` , its IC50 = 1110

Bench note, PGD2 production in rat mast cell like cell line RBL-2H3: entry `O=C(O)CCc1ccc2c(c1)c(CCc1ccccc1)cn2-c1ccc(O)cc1` , its IC50 = 1210

Bench note, PGD2 production in rat mast cell like cell line RBL-2H3: entry `O=C(O)CCc1ccc2c(c1)c(CCc1ccccc1)cn2-c1ccc(OCCO)cc1` , its IC50 = 890

Bench note, PGD2 production in rat mast cell like cell line RBL-2H3: entry `O=C(O)CCc1ccc2c(c1)c(CCc1ccccc1)cn2-c1ccc(F)cc1` , its IC50 = 430

Bench note, PGD2 production in rat mast cell like cell line RBL-2H3: entry `COCc1ccc(-n2cc(CCc3ccccc3)c3cc(CCC(=O)O)ccc32)cc1` , its IC50 = 1120

Bench note, PGD2 production in rat mast cell like cell line RBL-2H3: entry `O=C(O)CCc1ccc2c(c1)c(CCc1ccccc1)cn2-c1ccc(OC(F)(F)F)cc1` , its IC50 = 820

Bench note, PGD2 production in rat mast cell like cell line RBL-2H3: entry `O=C(O)CCc1ccc2c(c1)c(CCc1ccccc1)cn2-c1ccc(Oc2ccccc2)cc1` , its IC50 = 760

---

Target: cPLA2 crudely purified from the cytoplasm fraction of U937 (Homo sapiens)
Construct: cPLA2 crudely purified from the cytoplasm fraction of U937; endogenous in cells; host or cells: U937 cells (cytoplasm fraction, crude purification)
Sequence (P47712 1-749): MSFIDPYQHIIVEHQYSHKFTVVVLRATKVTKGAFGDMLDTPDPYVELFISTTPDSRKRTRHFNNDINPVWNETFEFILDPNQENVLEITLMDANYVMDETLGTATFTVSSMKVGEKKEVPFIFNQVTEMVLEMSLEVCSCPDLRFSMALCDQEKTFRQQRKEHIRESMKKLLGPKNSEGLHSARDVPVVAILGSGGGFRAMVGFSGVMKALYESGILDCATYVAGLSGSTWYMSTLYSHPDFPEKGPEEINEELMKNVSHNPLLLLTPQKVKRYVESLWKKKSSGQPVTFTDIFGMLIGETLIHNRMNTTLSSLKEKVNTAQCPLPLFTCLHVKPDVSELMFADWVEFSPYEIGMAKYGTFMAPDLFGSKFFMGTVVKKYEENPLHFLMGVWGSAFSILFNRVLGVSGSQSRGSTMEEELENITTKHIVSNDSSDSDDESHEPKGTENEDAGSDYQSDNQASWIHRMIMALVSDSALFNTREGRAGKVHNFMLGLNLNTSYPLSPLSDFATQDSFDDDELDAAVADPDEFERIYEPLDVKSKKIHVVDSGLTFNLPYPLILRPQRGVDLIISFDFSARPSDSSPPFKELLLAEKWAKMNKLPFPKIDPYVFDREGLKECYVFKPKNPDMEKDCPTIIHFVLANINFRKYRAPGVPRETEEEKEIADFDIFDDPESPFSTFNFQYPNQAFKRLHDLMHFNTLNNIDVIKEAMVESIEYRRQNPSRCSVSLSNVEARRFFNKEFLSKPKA
Assay: Measurement of cPLA2 inhibitory activity (release of [14C]-arachidonic acid from phosphatidyl choline liposome)
Type: biochemical
Conditions: cPLA2 from U937 cytoplasm fraction, [14C]arachidonyl-phosphatidyl choline liposome, 37° C., 60 minutes; read-out: cPLA2 inhibitory activity, 50% inhibiting concentration IC50
Property Name: pIC50
In plain terms, pIC50 is the concentration in mol/L turned into minus its base-10 logarithm.

Entry under test: CCOc1ccc(-n2cc(CCc3ccccc3)c3cc(CCC(=O)NC#N)ccc32)cc1 [Example 115] . Its pIC50 was 7.21

Entry under test: O=C(O)CCc1ccc2c(c1)c(CCc1ccccc1)cn2-c1ccc(OCc2ccccn2)cc1 [Example 245] . Its pIC50 was 8.00

Entry under test: O=C(O)CCc1ccc2c(c1)c(CCc1ccccn1)cn2-c1ccccc1 [Example 264] . Its pIC50 was 6.47

Entry under test: CCOc1ccc(-n2cc(CCc3ccccc3)c3cc(CCC(=O)N(C)OC)ccc32)cc1 [Example 116] . Its pIC50 was 5.66

---

Target: cPLA2 crudely purified from the cytoplasm fraction of U937 (Homo sapiens, UniProt P47712)
Construct: cPLA2 crudely purified from the cytoplasm fraction of U937; endogenous in cells; host or cells: U937 cells (cytoplasm fraction, crude purification)
Assay: Measurement of cPLA2 inhibitory activity (release of [14C]-arachidonic acid from phosphatidyl choline liposome)
Assay type: biochemical
Conditions: cPLA2 from U937 cytoplasm fraction, [14C]arachidonyl-phosphatidyl choline liposome, 37° C., 60 minutes; read-out: cPLA2 inhibitory activity, 50% inhibiting concentration IC50
Where a name gives a salt, the structure may show the parent alone.
Property Name: IC50 (nM)
The reply should be a number in nM, with the unit left off.

Bench note, cPLA2 crudely purified from the cytoplasm fraction of U937 (Homo sapiens, UniProt P47712): entry `O=C(O)CCc1ccc2c(c1)c(CCc1ccccc1)cn2-c1cccc(OCc2ccccc2)c1` , its IC50 = 208

Bench note, cPLA2 crudely purified from the cytoplasm fraction of U937 (Homo sapiens, UniProt P47712): entry `O=C(O)/C=C/c1ccc2c(c1)c(Cc1ccccc1)cn2-c1ccccc1` , its IC50 = 1040

Bench note, cPLA2 crudely purified from the cytoplasm fraction of U937 (Homo sapiens, UniProt P47712): entry `CC(C)(C)c1ccc(-n2cc(CCc3ccccc3)c3cc(CCC(=O)O)ccc32)cc1` , its IC50 = 419

Bench note, cPLA2 crudely purified from the cytoplasm fraction of U937 (Homo sapiens, UniProt P47712): entry CC(C(=O)c1cn(-c2ccccc2)c2ccc(/C=C/C(=O)O)cc12)c1ccccc1 (centres unmarked) , its IC50 = 3400

Bench note, cPLA2 crudely purified from the cytoplasm fraction of U937 (Homo sapiens, UniProt P47712): entry `O=C(O)CCc1ccc2c(c1)c(CCc1ccccc1)cn2-c1ccc(F)cc1` , its IC50 = 58

Bench note, cPLA2 crudely purified from the cytoplasm fraction of U937 (Homo sapiens, UniProt P47712): entry O=C(O)CCc1ccc2c(c1)c(CCc1ccccc1)cn2-c1ccccn1 [Example 132, hydrochloride] , its IC50 = 225

Bench note, cPLA2 crudely purified from the cytoplasm fraction of U937 (Homo sapiens, UniProt P47712): entry `O=C(O)CCc1ccc2c(c1)c(CCc1ccccc1)cn2-c1ccc(CCO)cc1` , its IC50 = 244

---

Biological target: cPLA2 crudely purified from the cytoplasm fraction of U937 (Homo sapiens)
Construct: cPLA2 crudely purified from the cytoplasm fraction of U937; endogenous in cells; host or cells: U937 cells (cytoplasm fraction, crude purification)
Experiment: Measurement of cPLA2 inhibitory activity (release of [14C]-arachidonic acid from phosphatidyl choline liposome)
Format: biochemical
Settings: cPLA2 from U937 cytoplasm fraction, [14C]arachidonyl-phosphatidyl choline liposome, 37° C., 60 minutes; read-out: cPLA2 inhibitory activity, 50% inhibiting concentration IC50
Property Name: log10(IC50) (log10 of the value in nM)
Lab note - IC50 converted to log10 from values in nM.

Entry under test: `N#Cc1cccc(-n2cc(CCc3ccccc3)c3cc(CCC(=O)O)ccc32)c1` . Its log10(IC50) was 2.41

Entry under test: `O=C(O)CCc1ccc2c(c1)c(CCc1ccccc1)cn2-c1ccc(OCc2ccccc2)cc1` . Its log10(IC50) was 0.90

Entry under test: `O=C(O)CCc1ccc2c(c1)c(CCc1ccccc1)cn2-c1ccc(OCCc2cccnc2)cc1` . Its log10(IC50) was 1.15

Entry under test: `COc1ccc(-n2cc(CCc3ccccc3)c3cc(CCC(=O)O)ccc32)cn1` . Its log10(IC50) was 2.05

Entry under test: `CCOc1ccc(-n2cc(CCc3ccccc3)c3cc(CCC=O)ccc32)cc1` . Its log10(IC50) was 2.72

Entry under test: CN(C)c1ccc(-n2cc(CCc3ccccc3)c3cc(CCC(=O)O)ccc32)cc1 [Example 85] . Its log10(IC50) was 1.89

Entry under test: `O=C(O)CCc1ccc2c(c1)c(CCc1ccc(Cl)cc1)cn2-c1ccccc1` . Its log10(IC50) was 3.06

Entry under test: CCC(C(=O)c1cn(-c2ccccc2)c2ccc(/C=C/C(=O)O)cc12)c1ccccc1 (centres unmarked) . Its log10(IC50) was 3.76
